Ref: paper PMC3553976

target-or-test-system: U2AF65^RRM123 (residues 147–475) (human, UniProt P26368 147-475)
Sequence (P26368 147-475, one chain of several): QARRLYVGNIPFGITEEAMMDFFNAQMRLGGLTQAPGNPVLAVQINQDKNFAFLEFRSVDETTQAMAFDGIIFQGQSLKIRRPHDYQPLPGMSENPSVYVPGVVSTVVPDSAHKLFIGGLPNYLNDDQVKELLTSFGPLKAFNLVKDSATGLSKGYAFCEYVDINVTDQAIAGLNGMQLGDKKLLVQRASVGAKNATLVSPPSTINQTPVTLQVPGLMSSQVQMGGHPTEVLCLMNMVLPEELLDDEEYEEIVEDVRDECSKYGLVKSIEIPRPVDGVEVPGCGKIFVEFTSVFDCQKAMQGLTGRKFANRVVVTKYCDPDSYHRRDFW
procedure-summary: native gel or EMSA

{"columns": ["binder", "binding result"],
 "data": [
  ["SF1^2-320 with helix α1 deleted (Δ35–68) (domain or fragment, human) ATGANATPLDFPSKKRKRSRWNQDTMEQKTVIPGTDLGIPPNPEDRSPSPEPIYNSEGKRLNTREFRTRKKLEEERHNLITEMVALNPDFKPPADYKPPATRVSDKVMIPQDEYPEINFVGLLIGPRGNTLKNIEKECNAKIMIRGKGSVKEGKVGRKDGQMLPGEDEPLHALVTANTMENVKKAVEQIRNILKQGIETPEDQNDLRKMQLRELARLNGTLREDDNRILRPWQSSETRSITNTTVCTKCGGAGHIASDCKFQRPGDPQSAQDKARMDKEYLSLMAEL", "binds"]
]}
